test system: CD23a mRNA; assay: siRNA-mediated knockdown of CD23a mRNA expression in cultured human ASM cells (RT-PCR); assay type: cell-based; settings: FIG. 2; human ASM cells, control conditions; Oligofectamine-mediated transfection, 100 nM each siRNA duplex

SUBSTANCE	CD23a mRNA expression (constitutive)
#106644: siRNA duplex against human CD23 (Applied Biosystems): sense 5′-GGAGGUGACAAAGCUAAGGtt-3′, antisense 5′-CCUUAGCUUUGUCACCUCCtc-3′ (sense GGAGGUGACAAAGCUAAGGTT; antisense CCUUAGCUUUGUCACCUCCTC; chemistry not given here)	no effect
#106645: siRNA duplex against human CD23 (Applied Biosystems): sense 5′-GGUGACAAAGCUAAGGAUGtt-3′, antisense 5′-CAUCCUUAGCUUUGUCACCtc-3′ (sense GGUGACAAAGCUAAGGAUGTT; antisense CAUCCUUAGCUUUGUCACCTC; chemistry not given here)	distinctly inhibited
#111062: siRNA duplex against human CD23 (Applied Biosystems): sense 5′-CGAAGCUUCAGAUUUGCUGtt-3′, antisense 5′-CAGCAAAUCUGAAGCUUCGtt-3′ (sense CGAAGCUUCAGAUUUGCUGTT; antisense CAGCAAAUCUGAAGCUUCGTT; chemistry not given here)	no effect
#111060: siRNA duplex against human CD23 (Applied Biosystems): sense 5′-GGAAUUGAACGAGAGGAACtt-3′, antisense 5′-GUUCCUCUCGUUCAAUUCCtg-3′ (sense GGAAUUGAACGAGAGGAACTT; antisense GUUCCUCUCGUUCAAUUCCTG; chemistry not given here)	distinctly inhibited
